Field: Ki. Provide a value for each of the compounds that follow.
procedure-summary: Displacement of [3H]-Epibatidine from aplha6beta2* nAChR in Sprague-Dawley rat cortical membranes pre-incubated for 5 mins followed by overnight incubation by radioligand liquid scintillation counter analysis
Express your answer as a number followed by its unit.

These solved cases illustrate the format of a correct answer.
c1ccc(-c2cncc(N3CC4CC(C3)N4)c2)cc1	0.0112 nM
Clc1cncc(N2CC3CC(C2)N3)c1	0.0112 nM
Fc1ccc(-c2cncc(N3CC4CC(C3)N4)c2)cc1	0.032 nM

Kindly consider the entry below.
Exercise: Any idea what Ki was measured for `Clc1ccc(N2CC3CC(C2)N3)cn1` ?
Key: 0.0048 nM
